Let's look at some binders and their measured b-arrestin2 Max (%).
- Assayed target: T1, rat angiotensin 2 type 1 receptor (rat, UniProt P25095 1-359)
- T1 sequence (looked up): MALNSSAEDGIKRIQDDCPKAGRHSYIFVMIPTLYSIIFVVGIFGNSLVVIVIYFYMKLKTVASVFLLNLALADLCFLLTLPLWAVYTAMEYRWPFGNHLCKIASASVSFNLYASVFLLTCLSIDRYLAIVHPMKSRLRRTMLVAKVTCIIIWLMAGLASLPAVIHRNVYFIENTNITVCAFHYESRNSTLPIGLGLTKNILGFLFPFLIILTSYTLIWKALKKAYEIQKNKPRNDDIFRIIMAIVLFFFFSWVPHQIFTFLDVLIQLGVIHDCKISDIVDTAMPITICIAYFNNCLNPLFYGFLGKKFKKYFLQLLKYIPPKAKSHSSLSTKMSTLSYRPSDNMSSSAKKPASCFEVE
- Measurement protocol: cell-based or functional assay
Non-standard residues stand in square brackets, D forms with d. No end group written: not given here. Sar = CNCC(=O)O
Readout name: b-arrestin2 Max (%)

{"Binder": "[Sar]RVYHHP-NH2 (N-terminus assumed; SMILES CNCC(=O)N[C@@H](CCCNC(=N)N)C(=O)N[C@H](C(=O)N[C@@H](Cc1ccc(O)cc1)C(=O)N[C@@H](Cc1c[nH]cn1)C(=O)N[C@@H](Cc1c[nH]cn1)C(=O)N1CCC[C@H]1C(N)=O)C(C)C) [SEQ ID NO: 42]", "Readout name": "b-arrestin2 Max (%)", "Value measured": 74.9}
{"Binder": "XRVFIHPA (Sar (sarcosine) at 1; D-Ala at 8) [SEQ ID NO: 48]", "Readout name": "b-arrestin2 Max (%)", "Value measured": 42.1}
{"Binder": "GRVYVHPA (Me2G (N,N-dimethylglycine) at 1) [SEQ ID NO: 31]", "Readout name": "b-arrestin2 Max (%)", "Value measured": 75.9}
{"Binder": "ERVYYHP (D-Glu at 1; C-terminal amide (NH2)) [SEQ ID NO: 60]", "Readout name": "b-arrestin2 Max (%)", "Value measured": 79.3}
{"Binder": "DRVYIHPA [SEQ ID NO: 25]", "Readout name": "b-arrestin2 Max (%)", "Value measured": 77}
{"Binder": "FVYIHPFVYIHPFVYIHP (cyclic, as printed: Cyclo(...)) [SEQ ID NO: 37]", "Readout name": "b-arrestin2 Max (%)", "Value measured": 60.7}
